Subject of test: zfERβ2 (Danio rerio, UniProt Q7ZU32)
Measurement setup: read-out: zfERβ2 EC50; HELN-zfERβ2, 37 °C
Endpoint name: EC50

[Q] Give its EC50 value. Item: C#C[C@]1(O)CC[C@H]2[C@@H]3CCc4cc(O)ccc4[C@H]3CC[C@@]21C [EE2]
[A] ~0.197 nM

---

Subject of test: zfERβ2 (Danio rerio)
Measurement setup: HELN-zfERβ2
Endpoint name: agonistic activity on zfERβ2 (in words)

- CCC(=C(c1ccc(O)cc1)c1ccc(OCCN(C)C)cc1)c1ccccc1 [4OH-tamoxifen]: No agonistic activity
- C[C@]12CC[C@@H]3c4ccc(O)cc4C[C@@H](CCCCCCCCC[S+]([O-])CCCC(F)(F)C(F)(F)F)[C@H]3[C@@H]1CC[C@@H]2O (some centres unmarked) [ICI 182,780]: No agonistic activity
